This collection of values is drawn from patent US12581252B2.

Biological target: H1047R PIK3CA enzyme (Homo sapiens, UniProt P42336, H1047R)
Sequence (P42336 whole entry H1047R): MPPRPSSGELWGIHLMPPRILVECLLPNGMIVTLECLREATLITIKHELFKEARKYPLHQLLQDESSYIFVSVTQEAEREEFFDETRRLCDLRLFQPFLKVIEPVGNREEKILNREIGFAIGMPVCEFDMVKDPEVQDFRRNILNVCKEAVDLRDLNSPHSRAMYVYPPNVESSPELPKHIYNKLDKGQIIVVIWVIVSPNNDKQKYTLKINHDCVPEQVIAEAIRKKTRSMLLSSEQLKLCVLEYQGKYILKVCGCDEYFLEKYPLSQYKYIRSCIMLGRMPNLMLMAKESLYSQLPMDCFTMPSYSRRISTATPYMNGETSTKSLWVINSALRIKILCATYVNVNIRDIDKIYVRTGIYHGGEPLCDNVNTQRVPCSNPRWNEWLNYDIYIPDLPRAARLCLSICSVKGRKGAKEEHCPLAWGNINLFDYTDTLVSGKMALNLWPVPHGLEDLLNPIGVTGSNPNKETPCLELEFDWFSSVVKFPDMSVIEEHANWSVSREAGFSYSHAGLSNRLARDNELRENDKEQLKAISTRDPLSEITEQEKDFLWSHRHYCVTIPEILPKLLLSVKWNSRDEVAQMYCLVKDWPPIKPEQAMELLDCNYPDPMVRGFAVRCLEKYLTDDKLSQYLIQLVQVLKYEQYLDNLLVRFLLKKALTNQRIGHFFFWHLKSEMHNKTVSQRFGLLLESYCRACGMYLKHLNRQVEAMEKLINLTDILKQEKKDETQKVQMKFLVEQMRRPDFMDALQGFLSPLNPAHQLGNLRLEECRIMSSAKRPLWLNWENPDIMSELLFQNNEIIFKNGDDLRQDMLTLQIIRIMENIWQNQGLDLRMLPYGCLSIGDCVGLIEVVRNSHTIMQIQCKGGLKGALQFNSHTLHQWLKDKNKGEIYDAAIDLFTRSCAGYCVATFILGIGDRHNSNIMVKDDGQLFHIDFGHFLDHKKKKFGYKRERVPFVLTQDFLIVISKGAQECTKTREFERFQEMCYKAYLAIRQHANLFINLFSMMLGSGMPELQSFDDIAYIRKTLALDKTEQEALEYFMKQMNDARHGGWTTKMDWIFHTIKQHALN
Sequence (P27986 whole entry partner): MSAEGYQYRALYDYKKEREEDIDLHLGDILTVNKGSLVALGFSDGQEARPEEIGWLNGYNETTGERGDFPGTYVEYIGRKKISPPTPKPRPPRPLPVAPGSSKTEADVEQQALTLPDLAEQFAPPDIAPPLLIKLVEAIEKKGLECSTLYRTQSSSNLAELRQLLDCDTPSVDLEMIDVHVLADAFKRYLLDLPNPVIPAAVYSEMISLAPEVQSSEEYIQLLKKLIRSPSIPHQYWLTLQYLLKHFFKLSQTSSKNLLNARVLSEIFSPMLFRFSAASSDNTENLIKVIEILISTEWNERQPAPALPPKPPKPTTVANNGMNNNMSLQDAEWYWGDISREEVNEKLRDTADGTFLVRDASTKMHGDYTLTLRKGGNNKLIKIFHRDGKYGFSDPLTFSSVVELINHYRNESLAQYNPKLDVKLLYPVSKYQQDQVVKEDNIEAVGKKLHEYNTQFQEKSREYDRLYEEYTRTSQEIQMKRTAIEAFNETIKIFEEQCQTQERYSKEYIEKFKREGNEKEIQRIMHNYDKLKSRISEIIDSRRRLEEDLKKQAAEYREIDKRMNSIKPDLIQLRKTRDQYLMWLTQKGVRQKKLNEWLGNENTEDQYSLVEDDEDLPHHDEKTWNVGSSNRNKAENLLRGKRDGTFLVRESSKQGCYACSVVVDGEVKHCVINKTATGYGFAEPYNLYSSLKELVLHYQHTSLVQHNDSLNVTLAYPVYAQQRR
Experiment: ADP-Glo Biochemical PIK3CA Kinase Assay
Experimental: Compounds to be assayed were plated in 16 doses of 1:2 serial dilutions (20 nL volume each well) on a 1536-well plate, and the plate warmed to room temperature. […] To the well was added 1 μL of 200 μM ATP and 20 μM of diC8-PIP2 in Substrate Assay Buffer (50 mM HEPES pH7.4, 50 mM NaCl, 5 mM DTT and 0.03% CHAPS) to start the reaction, and the plate was shaken for 10 seconds, then spun briefly at 1500 rpm, and then incubated for 60 minutes at room temperature. […]
pIC50: −log10 of the molar value.
measured-parameter: pIC50

IN: Given O=C1N[C@@H](c2cc(F)ccc2Cl)c2c(NC(=O)[C@H]3CC[C@@H](O)C3)cc(Br)cc21 (single isomer, unassigned) , state its recorded pIC50.
OUT: 4.00 to 5.00

IN: Now consider O=C(Nc1cnc(NC2COC2)c2c1C(c1cc(F)ccc1Cl)NC2=O)c1cc(F)cc(C(F)(F)F)c1 (centres unmarked) .
OUT: 5.00 to 6.00

IN: Now consider Cn1cc(C#Cc2cc(NC(=O)c3cc(F)cc(C(F)(F)F)c3)c3c(c2)C(=O)NC3c2cc(F)ccc2Cl)cn1 (centres unmarked) .
OUT: ≥ 7.00

IN: Now consider O=C1N[C@H](c2cc(F)ccc2Cl)c2c(N[C@H]3CCCNC3)cc(-c3ccc4ncnn4c3)cc21 (racemic) .
OUT: 4.00 to 5.00

IN: Now consider Cc1cc2ncnn2cc1-c1cc(NC(=O)c2cc(F)cc(C(F)(F)F)c2)c2c(c1)C(=O)N[C@H]2c1cc(F)ccc1Cl .
OUT: ≥ 7.00

IN: Now consider N#Cc1cc(NC(=O)c2cc(F)cc(C(F)(F)F)c2)c2c(c1)C(=O)NC2c1cc(F)ccc1C(F)F (centres unmarked) .
OUT: ≥ 7.00

IN: Now consider O=C1NC(c2cc(F)ccc2Cl)c2c(NC(=O)C34CCC(C(O)C(F)(F)F)(CC3)C4)cccc21 (centres unmarked) .
OUT: 4.00 to 5.00

IN: Now consider O=C(Nc1cc(-c2ccncc2F)nc2c1C(c1cc(F)ccc1Cl)NC2=O)c1cc(F)cc(C(F)(F)F)c1 (centres unmarked) .
OUT: ≥ 7.00

IN: Now consider COc1cc2c(cn1)N(C(=O)Nc1ccnc3c1C(c1ccccc1C)NC3=O)CC2 (centres unmarked) .
OUT: 4.00 to 5.00

IN: Now consider Cc1ncc(-c2cc(NC(=O)c3cc(F)cc(C(F)(F)F)c3)c3c(n2)C(=O)NC3c2cc(F)ccc2Cl)s1 (centres unmarked) .
OUT: ≥ 7.00

IN: Now consider N#Cc1ccncc1-c1cc(NC(=O)c2cc(F)cc(C(F)(F)F)c2)c2c(c1)C(=O)NC2c1cc(F)ccc1Cl (centres unmarked) .
OUT: ≥ 7.00

IN: Now consider O=C(Nc1cc(NC(=O)C2(O)CC2)cc2c1C(c1cc(F)ccc1Cl)NC2=O)c1cc(F)cc(C(F)(F)F)c1 (centres unmarked) .
OUT: ≥ 7.00

IN: Now consider Cc1ccccc1C1NC(=O)c2nccc(NC(=O)c3cc(F)cc(C(F)(F)F)c3)c21 (centres unmarked) .
OUT: 6.30 to 7.00

IN: Now consider CC(C)(O)c1cc(NC(=O)c2cc(F)cc(C(F)(F)F)c2)c2c(c1)C(=O)N[C@H]2c1cc(F)ccc1C(F)F .
OUT: ≥ 7.00

----------
Kindly supply the reported IC50 values for the records listed here.
Biological target: H1047R PIK3CA enzyme (Homo sapiens, UniProt P42336, H1047R)
Test: ADP-Glo Biochemical PIK3CA Kinase Assay

IN: Item O=C(Nc1cc(-c2ccc3ncnn3c2)cc2c1C(c1cc(F)ccc1Cl)NC2=O)c1cc2ccccc2[nH]1 (stereo not shown) with H1047R PIK3CA enzyme (Homo sapiens, UniProt P42336, H1047R) - IC50?
OUT: 1000 to 10000 nM

IN: Now consider COc1cnc(-c2cc(NC(=O)c3cc(F)cc(C(F)(F)F)c3)c3c(c2)C(=O)NC3c2cc(F)ccc2Cl)cn1 (stereo not shown) .
OUT: ≤ 100 nM

IN: Now consider Cc1ncc(-c2cc(NC(=O)c3cc(F)cc(C(F)(F)F)c3)c3c(n2)C(=O)N[C@H]3c2cc(F)ccc2Cl)cn1 .
OUT: ≤ 100 nM

IN: Now consider O=C(O)Cc1ccncc1-c1cc(NC(=O)c2cc(F)cc(C(F)(F)F)c2)c2c(c1)C(=O)NC2c1cc(F)ccc1Cl (stereo not shown) .
OUT: ≤ 100 nM

IN: Now consider N#Cc1c(-c2cc(NC(=O)c3cc(F)cc(Cl)c3)c3c(c2)C(=O)N[C@H]3c2cc(F)ccc2Cl)ccc2ncnn12 .
OUT: 500 to 1000 nM

IN: Now consider Cn1cc(-c2cc(NC(=O)c3cc(F)cc(Cl)c3)c3c(n2)C(=O)NC3c2cc(F)ccc2Cl)ccc1=O (stereo not shown) .
OUT: ≤ 100 nM

IN: Now consider O=C(Nc1cc(-c2cn3ccncc3n2)cc2c1C(c1cc(F)ccc1Cl)NC2=O)c1cc(F)cc(C(F)(F)F)c1 (stereo not shown) .
OUT: ≤ 100 nM

IN: Now consider CC(C)(C#N)c1cc(NC(=O)c2cc(F)cc(C(F)(F)F)c2)c2c(c1)C(=O)NC2c1cc(F)ccc1Cl (stereo not shown) .
OUT: ≤ 100 nM

IN: Now consider Cn1ncc(C2NC(=O)c3cccc(NC(=O)c4nsc5ccccc45)c32)c1C(F)(F)F (stereo not shown) .
OUT: 1000 to 10000 nM

IN: Now consider O=C1N[C@H](c2cc(F)ccc2Cl)c2c(NC(=O)N3CCC[C@](O)(C(F)(F)F)C3)cccc21 (single isomer, unassigned) .
OUT: 10000 to 100000 nM

IN: Now consider [2H][C@]1(c2cc(F)ccc2Cl)NC(=O)c2cccc(NC(=O)N3C[C@@](O)(C(F)(F)F)c4cc(F)ccc43)c21 (single isomer, unassigned) .
OUT: 1000 to 10000 nM

IN: Now consider O=C(Nc1cc(N2CC3(CCO3)C2)cc2c1C(c1cc(F)ccc1Cl)NC2=O)c1cc(F)cc(C(F)(F)F)c1 (stereo not shown) .
OUT: 100 to 500 nM

IN: Now consider O=C1NC(c2cc(F)ccc2Cl)c2c(NC(=O)[C@@H](O)c3cc(F)cc(F)c3)cc(Br)cc21 (single isomer, unassigned) .
OUT: 10000 to 100000 nM

----------
Kindly supply the reported pIC50 values for the records listed here.
Target: H1047R PIK3CA enzyme (Homo sapiens, UniProt P42336, H1047R)
Experiment: ADP-Glo Biochemical PIK3CA Kinase Assay
pIC50: −log10 of the molar value.

IN: Given Nc1nccc(-c2cc(NC(=O)c3cc(F)cc(C(F)(F)F)c3)c3c(c2)C(=O)NC3c2cc(F)ccc2Cl)n1 (stereo not shown) [Compound I-1090] , state its recorded pIC50.
OUT: ≥ 7.00

IN: Now consider O=C1NC(c2cc(F)ccc2Cl)c2c(NC(=O)C34CC5CC(CC(Cl)(C5)C3)C4)cc(Br)cc21 (stereo not shown) [Compound I-1179] .
OUT: ≥ 7.00

IN: Now consider O=C(Nc1cc(-c2ccc3nncn3c2)cc2c1C(c1cc(F)ccc1Cl)NC2=O)c1cc(F)cc(C(F)(F)F)c1 (stereo not shown) [Compound I-821] .
OUT: ≥ 7.00

IN: Now consider O=C(Nc1cccc2c1[C@@H](C1CCC[C@H](O)C1)NC2=O)c1cc(F)cc(C(F)(F)F)c1 (single isomer, unassigned) [Compound I-2225] .
OUT: 4.00 to 5.00

IN: Now consider N#CC1(CNc2cc(NC(=O)c3cc(F)cc(C(F)(F)F)c3)c3c(c2)C(=O)N[C@H]3c2cc(F)ccc2Cl)CC1 [Compound I-868] .
OUT: ≥ 7.00

IN: Now consider O=C(Nc1cc(Br)cc2c1C(c1cc(F)ccc1Cl)NC2=O)Oc1ccc2c(n1)NCC2 (stereo not shown) [Compound I-1206] .
OUT: 4.00 to 5.00

IN: Now consider O=C1NC(c2cc(F)ccc2Cl)c2c(NC(=O)N3CC4(CC4)c4ccccc43)cc(Br)cc21 (stereo not shown) [Compound I-1462] .
OUT: 6.30 to 7.00

IN: Now consider O=C(Nc1cc(-c2ccc3ncnn3c2)cc2c1[C@H](c1cc(F)c(F)cc1Cl)NC2=O)c1cc(F)cc(C(F)(F)F)c1 [Compound I-1059] .
OUT: 5.00 to 6.00

IN: Now consider Nc1nc2ccc(-c3cc(NC(=O)c4cc(F)cc(C(F)(F)F)c4)c4c(c3)C(=O)NC4c3cc(F)ccc3Cl)cn2n1 (stereo not shown) [Compound I-1368] .
OUT: ≥ 7.00

IN: Now consider CC(C)(O)c1cc(NC(=O)c2cc(F)cc(C(F)(F)F)c2)c2c(c1)C(=O)NC2c1cc(F)ccc1C(F)F (stereo not shown) [Compound I-239] .
OUT: ≥ 7.00

IN: Now consider O=C(Cc1cc(F)ccc1C(F)(F)F)Nc1cc(Br)cc2c1C(c1cc(F)ccc1Cl)NC2=O (stereo not shown) [Compound I-560] .
OUT: 5.00 to 6.00

IN: Now consider O=C(Nc1cc(-c2cnn(C(F)F)c2)cc2c1C(c1cc(F)ccc1Cl)NC2=O)c1cc(F)cc(C(F)(F)F)c1 (stereo not shown) [Compound I-1657] .
OUT: ≥ 7.00

IN: Now consider O=C1N[C@H](c2cc(F)ccc2Cl)c2c(NC(=O)N3C[C@@](O)(C(F)(F)F)c4cc(F)ccc43)ccc(-n3cccn3)c21 (single isomer, unassigned) [Compound I-2496] .
OUT: 5.00 to 6.00
